GI50 values for the compounds below.
# Test system: COLO 205
# Protocol: NCI tumour cell line growth inhibition, 48 h
Calls of active or inactive are those of the source. Rule as the data show it: active = GI50 up to about 1.1 µM and inactive = higher.

Reference set, count: 3
COC(=O)c1sc2nc(Nc3ccccc3)/c(=N\c3ccccc3)sc2c1C :: > 100 µM (inactive)
CCOC(=O)/C(=C\NC(C)(C)C)c1nc2ccccc2[nH]1 :: 16 µM (inactive)
C/C(=C\c1ccc(Cl)cc1)C(C)(C)C(=O)O :: > 100 µM (inactive)

Task: Fill in: GI50 of `c1ccc(C2=NN(c3nc4ccccc4s3)C3(CCCCC3)N2)nc1` is ___
Output: 19.3 µM (inactive)
